Listing: IC50 of selected molecules
- experimental_system: Tyrosinase (Agaricus bisporus)
- Sequence (O42713 whole entry): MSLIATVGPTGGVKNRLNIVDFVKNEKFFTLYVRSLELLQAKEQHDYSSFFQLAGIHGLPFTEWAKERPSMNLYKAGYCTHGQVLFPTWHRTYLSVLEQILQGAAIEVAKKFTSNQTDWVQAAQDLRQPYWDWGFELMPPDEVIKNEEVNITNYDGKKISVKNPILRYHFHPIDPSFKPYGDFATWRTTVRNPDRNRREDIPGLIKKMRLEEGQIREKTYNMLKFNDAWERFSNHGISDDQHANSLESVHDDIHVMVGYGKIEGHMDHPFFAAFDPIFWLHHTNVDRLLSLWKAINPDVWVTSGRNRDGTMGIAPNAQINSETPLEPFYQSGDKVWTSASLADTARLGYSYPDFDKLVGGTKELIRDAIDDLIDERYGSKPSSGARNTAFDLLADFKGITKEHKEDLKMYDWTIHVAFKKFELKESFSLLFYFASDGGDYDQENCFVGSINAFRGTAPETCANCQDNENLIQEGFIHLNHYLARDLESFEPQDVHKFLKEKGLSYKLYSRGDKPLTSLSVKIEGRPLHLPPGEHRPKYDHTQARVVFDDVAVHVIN
- protocol_summary: Inhibition of mushroom tyrosinase diphenolase activity

Use the examples below as a reference point.
{"smi": "CCCCCCn1cc(O)c(=O)cc1/C=N/OCC", "IC50": "13.9 µM"}
{"smi": "CCCCCCCCn1cc(O)c(=O)cc1COC(=O)[C@@H](N)Cc1ccccc1", "IC50": "4 µM"}

We now examine a further molecule.
Query :: Recall and state the measured IC50 for CCCCCCCCn1cc(O)c(=O)cc1/C=N/OCC .
Result :: 7.99 µM
